Origin of the recorded values: patent US9670213B2

TARGET OR SYSTEM: BLK (Homo sapiens (Human))
Sequence (P51451 whole entry): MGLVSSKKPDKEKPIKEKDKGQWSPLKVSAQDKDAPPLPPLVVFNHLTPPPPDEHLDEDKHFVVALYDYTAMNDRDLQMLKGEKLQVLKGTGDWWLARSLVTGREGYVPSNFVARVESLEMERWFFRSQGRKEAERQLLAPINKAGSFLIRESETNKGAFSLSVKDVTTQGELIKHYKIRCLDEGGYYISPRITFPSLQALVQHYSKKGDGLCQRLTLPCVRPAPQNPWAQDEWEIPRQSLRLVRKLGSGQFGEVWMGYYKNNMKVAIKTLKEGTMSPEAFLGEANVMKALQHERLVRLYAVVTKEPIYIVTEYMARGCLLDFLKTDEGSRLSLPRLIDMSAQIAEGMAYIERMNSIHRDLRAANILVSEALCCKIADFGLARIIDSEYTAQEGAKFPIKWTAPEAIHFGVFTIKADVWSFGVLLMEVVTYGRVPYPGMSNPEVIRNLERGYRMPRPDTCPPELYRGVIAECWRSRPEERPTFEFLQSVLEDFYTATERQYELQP
ASSAY REMARKS: BLK kinase activity assay (Caliper)
Type: biochemical
MEASUREMENT SETUP: read-out: Inhibitory activity on kinase (IC50, nM) BLK
OUTCOME MEASURE: IC50 (nM)

Examples from the recorded data:
- COMPOUND: "C=CC(=O)Nc1cccc(Nc2ncc3ncc(=O)n(-c4ccc(OC)cc4)c3n2)c1 [Compound 027]"
  UNIT OF MEASUREMENT: "nM"
  IC50: 5660
- COMPOUND: "COc1ccc(-n2c(=O)cnc3cnc(Nc4cccc(N)c4)nc32)cc1 [Compound 028]"
  UNIT OF MEASUREMENT: "nM"
  IC50: 7950
- COMPOUND: "C=CC(=O)Nc1ccc(-n2c(=O)cnc3cnc(Nc4ccc(N5CCN(C)CC5)cc4)nc32)cc1 [Compound 019]"
  UNIT OF MEASUREMENT: "nM"
  IC50: 796
- COMPOUND: "C=CC(=O)Nc1cccc(-n2c(=O)cnc3cnc(Nc4ccc(N5CCOCC5)cc4)nc32)c1 [Compound 018]"
  UNIT OF MEASUREMENT: "nM"
  IC50: 41
- COMPOUND: "C=CC(=O)Nc1cccc(-n2c(=O)cnc3cnc(Nc4ccc(N(CC)CC)cc4)nc32)c1 [Compound 023]"
  UNIT OF MEASUREMENT: "nM"
  IC50: 83

[a] C=CC(=O)Nc1ccc(-n2c(=O)cnc3cnc(Nc4ccccc4)nc32)cc1 [Compound 014]
[b] C=CC(=O)Nc1cccc(-n2c(=O)cnc3cnc(Nc4ccc(N5CCCC5)cc4)nc32)c1 [Compound 022]
Which one would you say has the larger IC50 value: a , or b ? State the label of the item chosen.
a

----------
TARGET OR SYSTEM: EGFR-T790M (Homo sapiens (Human), UniProt P00533, T790M)
Sequence (P00533 25-1210 T790M): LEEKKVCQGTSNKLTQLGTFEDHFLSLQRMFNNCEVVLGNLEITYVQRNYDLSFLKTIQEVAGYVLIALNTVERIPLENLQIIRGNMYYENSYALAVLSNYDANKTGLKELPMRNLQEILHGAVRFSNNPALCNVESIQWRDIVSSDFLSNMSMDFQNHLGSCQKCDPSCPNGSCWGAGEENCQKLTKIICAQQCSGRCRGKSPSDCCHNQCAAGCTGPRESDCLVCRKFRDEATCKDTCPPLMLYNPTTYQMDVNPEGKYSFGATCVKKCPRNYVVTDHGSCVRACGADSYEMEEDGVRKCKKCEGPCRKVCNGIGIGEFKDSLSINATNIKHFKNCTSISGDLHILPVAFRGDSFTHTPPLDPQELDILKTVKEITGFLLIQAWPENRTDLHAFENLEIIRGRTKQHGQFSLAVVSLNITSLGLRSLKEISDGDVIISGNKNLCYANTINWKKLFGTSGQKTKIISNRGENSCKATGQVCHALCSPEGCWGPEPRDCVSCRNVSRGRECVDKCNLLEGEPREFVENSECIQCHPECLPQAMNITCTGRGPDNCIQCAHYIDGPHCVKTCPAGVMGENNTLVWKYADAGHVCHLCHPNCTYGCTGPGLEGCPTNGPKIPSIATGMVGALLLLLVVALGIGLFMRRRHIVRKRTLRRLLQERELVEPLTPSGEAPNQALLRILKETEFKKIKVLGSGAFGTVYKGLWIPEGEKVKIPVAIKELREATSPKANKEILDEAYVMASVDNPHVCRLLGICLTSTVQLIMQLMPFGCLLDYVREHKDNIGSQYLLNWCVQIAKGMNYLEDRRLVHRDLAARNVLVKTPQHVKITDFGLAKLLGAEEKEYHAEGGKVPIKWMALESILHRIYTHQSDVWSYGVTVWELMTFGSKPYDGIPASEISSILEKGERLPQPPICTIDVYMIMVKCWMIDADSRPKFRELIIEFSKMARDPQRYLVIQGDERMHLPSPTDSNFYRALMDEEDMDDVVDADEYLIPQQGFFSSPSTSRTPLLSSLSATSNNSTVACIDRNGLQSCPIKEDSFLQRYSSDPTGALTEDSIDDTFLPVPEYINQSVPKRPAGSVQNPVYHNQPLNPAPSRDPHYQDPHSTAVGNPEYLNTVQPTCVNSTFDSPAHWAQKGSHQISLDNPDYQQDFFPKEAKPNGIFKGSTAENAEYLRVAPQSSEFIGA
ASSAY REMARKS: In vitro EGFR kinase activity assay (Z'-Lyte)
MEASUREMENT SETUP: read-out: Inhibitory activity on EGFR kinase (IC50, nM) T790M
OUTCOME MEASURE: IC50 (nM)

- COMPOUND: "C=CC(=O)Nc1cccc(-n2c(=O)cnc3cnc(Nc4ccc(OC)cc4)nc32)c1 [Compound 006]"
  IC50, nM: 19.4
- COMPOUND: "COc1ccc(Nc2ncc3ncc(=O)n(-c4ccc(NC(=O)/C=C/CN(C)C)cc4)c3n2)cc1 [Compound 009]"
  IC50, nM: 10.9
- COMPOUND: "COc1ccc(Nc2ncc3ncc(=O)n(-c4cccc(NC(=O)/C=C/CN(C)C)c4)c3n2)cc1 [Compound 010]"
  IC50, nM: 2250

[I] C=CC(=O)Nc1ccc(-n2c(=O)cnc3cnc(Nc4ccc(N5CCOCC5)cc4)nc32)cc1 [Compound 003]
[II] C=CC(=O)Nc1ccc(-n2c(=O)cnc3cnc(Nc4ccc(OC)cc4)nc32)cc1 [Compound 002]
Which one would you say has the larger IC50 value: I , or II ? State the label of the item chosen.
I
(I: 8700 nM, II: 665 nM)

----------
TARGET OR SYSTEM: UniProt:P51451
ASSAY REMARKS: BLK kinase activity assay (Caliper)
Assay type: biochemical
MEASUREMENT SETUP: read-out: Inhibitory activity on kinase (IC50, nM) BLK
OUTCOME MEASURE: IC50 (nM)

Examples from the recorded data:
- CHEMICAL STRING: "C=CC(=O)Nc1ccc(-n2c(=O)cnc3cnc(Nc4ccc(N5CCN(C)CC5)cc4OC)nc32)cc1"
  TARGET OR SYSTEM: "UniProt:P51451"
  UNIT OF MEASUREMENT: "nM"
  IC50: 812
- CHEMICAL STRING: "CN(C)C/C=C/C(=O)Nc1cccc(-n2c(=O)cnc3cnc(Nc4ccccc4)nc32)c1"
  TARGET OR SYSTEM: "UniProt:P51451"
  UNIT OF MEASUREMENT: "nM"
  IC50: 171
- CHEMICAL STRING: "C=CC(=O)Nc1cccc(-n2c(=O)cnc3cnc(Nc4ccc(Cl)cc4)nc32)c1"
  TARGET OR SYSTEM: "UniProt:P51451"
  UNIT OF MEASUREMENT: "nM"
  IC50: 156
- CHEMICAL STRING: "C=CC(=O)Nc1ccc(-n2c(=O)cnc3cnc(Nc4ccc(N5CCOCC5)cc4)nc32)cc1"
  TARGET OR SYSTEM: "UniProt:P51451"
  UNIT OF MEASUREMENT: "nM"
  IC50: 4170
- CHEMICAL STRING: "COc1ccc(Nc2ncc3ncc(=O)n(-c4ccc(NC(=O)/C=C/CN(C)C)cc4)c3n2)cc1"
  TARGET OR SYSTEM: "UniProt:P51451"
  UNIT OF MEASUREMENT: "nM"
  IC50: 5310

[A] C=CC(=O)Nc1cccc(-n2c(=O)cnc3cnc(Nc4ccc(N5CCN(C)CC5)cc4OC)nc32)c1
[B] C=CC(=O)Nc1cccc(-n2c(=O)cnc3cnc(Nc4ccc(C(N)=O)cc4)nc32)c1
Which one would you say has the larger IC50 value: A , or B ? State the label of the item chosen.
A

----------
TARGET OR SYSTEM: FLT3 (Homo sapiens (Human))
Sequence (P36888 27-993): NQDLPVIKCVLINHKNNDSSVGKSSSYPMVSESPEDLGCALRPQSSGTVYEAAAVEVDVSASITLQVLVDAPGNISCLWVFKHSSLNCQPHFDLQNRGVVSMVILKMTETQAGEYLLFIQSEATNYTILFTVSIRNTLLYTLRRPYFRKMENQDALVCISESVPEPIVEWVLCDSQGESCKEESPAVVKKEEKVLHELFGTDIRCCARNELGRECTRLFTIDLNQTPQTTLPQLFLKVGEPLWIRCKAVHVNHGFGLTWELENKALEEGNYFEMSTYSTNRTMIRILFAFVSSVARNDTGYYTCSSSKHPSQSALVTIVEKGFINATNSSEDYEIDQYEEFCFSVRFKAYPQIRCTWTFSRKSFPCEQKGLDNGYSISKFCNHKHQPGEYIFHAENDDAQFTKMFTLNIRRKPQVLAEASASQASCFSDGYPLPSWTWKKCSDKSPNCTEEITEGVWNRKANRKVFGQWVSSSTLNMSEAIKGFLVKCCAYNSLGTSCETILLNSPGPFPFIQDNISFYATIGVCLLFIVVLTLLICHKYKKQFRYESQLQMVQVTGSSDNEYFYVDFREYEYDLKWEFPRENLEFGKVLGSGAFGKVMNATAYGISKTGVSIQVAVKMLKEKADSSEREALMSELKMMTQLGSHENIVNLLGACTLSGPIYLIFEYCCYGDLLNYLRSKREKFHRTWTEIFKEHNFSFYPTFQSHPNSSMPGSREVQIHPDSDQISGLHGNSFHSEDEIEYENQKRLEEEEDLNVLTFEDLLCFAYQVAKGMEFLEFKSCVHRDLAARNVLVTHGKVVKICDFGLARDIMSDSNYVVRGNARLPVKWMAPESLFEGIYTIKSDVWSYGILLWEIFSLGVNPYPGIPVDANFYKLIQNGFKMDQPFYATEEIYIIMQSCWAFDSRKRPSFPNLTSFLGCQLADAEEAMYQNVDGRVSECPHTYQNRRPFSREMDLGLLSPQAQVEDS
ASSAY REMARKS: FLT3 kinase activity assay (Caliper)
Assay type: biochemical
MEASUREMENT SETUP: read-out: Inhibitory activity on kinase (IC50, nM) FLT3
OUTCOME MEASURE: IC50 (nM)

Examples from the recorded data:
- CHEMICAL STRING: "C=CC(=O)Nc1ccc(-n2c(=O)cnc3cnc(Nc4ccc(OC)cc4)nc32)cc1"
  TARGET OR SYSTEM: "FLT3 (Homo sapiens (Human))"
  UNIT OF MEASUREMENT: "nM"
  RECORDED MEASUREMENT: 128
- CHEMICAL STRING: "COc1ccc(-n2c(=O)cnc3cnc(Nc4ccc(N)cc4)nc32)cc1"
  TARGET OR SYSTEM: "FLT3 (Homo sapiens (Human))"
  UNIT OF MEASUREMENT: "nM"
  RECORDED MEASUREMENT: 43
- CHEMICAL STRING: "COc1ccc(Nc2ncc3ncc(=O)n(-c4cccc(NC(=O)/C=C/CN(C)C)c4)c3n2)cc1"
  TARGET OR SYSTEM: "FLT3 (Homo sapiens (Human))"
  UNIT OF MEASUREMENT: "nM"
  RECORDED MEASUREMENT: 4390
- CHEMICAL STRING: "C=CC(=O)Nc1cccc(-n2c(=O)cnc3cnc(Nc4ccc(OC)cc4)nc32)c1"
  TARGET OR SYSTEM: "FLT3 (Homo sapiens (Human))"
  UNIT OF MEASUREMENT: "nM"
  RECORDED MEASUREMENT: 1590
- CHEMICAL STRING: "C=CC(=O)Nc1ccc(-n2c(=O)cnc3cnc(Nc4ccc(N5CCOCC5)cc4)nc32)cc1"
  TARGET OR SYSTEM: "FLT3 (Homo sapiens (Human))"
  UNIT OF MEASUREMENT: "nM"
  RECORDED MEASUREMENT: 137
- CHEMICAL STRING: "C=CC(=O)Nc1ccc(Nc2ncc3ncc(=O)n(-c4ccc(OC)cc4)c3n2)cc1"
  TARGET OR SYSTEM: "FLT3 (Homo sapiens (Human))"
  UNIT OF MEASUREMENT: "nM"
  RECORDED MEASUREMENT: 100

[A] C=CC(=O)Nc1cccc(-n2c(=O)cnc3cnc(Nc4ccc(N5CCCCC5)cc4)nc32)c1
[B] C=CC(=O)Nc1cccc(-n2c(=O)cnc3cnc(Nc4ccc(NC(C)=O)cc4)nc32)c1
Which one would you say has the larger IC50 value: A , or B ? State the label of the item chosen.
B
(B: 3550 nM, A: 878 nM)

----------
Test system: HCC827 (non-small cell lung cancer cells, EGFR del E746-A750)
ASSAY REMARKS: Cell proliferation and growth inhibition analysis
Type: cell-based
MEASUREMENT SETUP: Homo sapiens, 72 hours, read-out: Inhibitory activity on cell proliferation (IC50, μM) HCC827
OUTCOME MEASURE: IC50 (µM)

Examples from the recorded data:
- CHEMICAL STRING: "C=CC(=O)Nc1ccc(-n2c(=O)cnc3cnc(Nc4ccc(N5CCN(C)CC5)cc4)nc32)cc1"
  RECORDED MEASUREMENT: 0.676
- CHEMICAL STRING: "C=CC(=O)Nc1cccc(-n2c(=O)cnc3cnc(Nc4ccc(C(N)=O)cc4)nc32)c1"
  RECORDED MEASUREMENT: 0.604
- CHEMICAL STRING: "C=CC(=O)Nc1ccc(-n2c(=O)cnc3cnc(Nc4ccc(Cl)cc4)nc32)cc1"
  RECORDED MEASUREMENT: 68.7

[a] COc1ccc(Nc2ncc3ncc(=O)n(-c4cccc(NC(=O)/C=C/CN(C)C)c4)c3n2)cc1
[b] C=CC(=O)Nc1cccc(-n2c(=O)cnc3cnc(Nc4ccc(N5CCN(C)CC5)cc4OC)nc32)c1
Of a and b , whose reported IC50 is numerically smaller? State the label of the item chosen.
b
